Target: Fyn (UniProt P06241)
Sequence (P06241 whole entry, looked up): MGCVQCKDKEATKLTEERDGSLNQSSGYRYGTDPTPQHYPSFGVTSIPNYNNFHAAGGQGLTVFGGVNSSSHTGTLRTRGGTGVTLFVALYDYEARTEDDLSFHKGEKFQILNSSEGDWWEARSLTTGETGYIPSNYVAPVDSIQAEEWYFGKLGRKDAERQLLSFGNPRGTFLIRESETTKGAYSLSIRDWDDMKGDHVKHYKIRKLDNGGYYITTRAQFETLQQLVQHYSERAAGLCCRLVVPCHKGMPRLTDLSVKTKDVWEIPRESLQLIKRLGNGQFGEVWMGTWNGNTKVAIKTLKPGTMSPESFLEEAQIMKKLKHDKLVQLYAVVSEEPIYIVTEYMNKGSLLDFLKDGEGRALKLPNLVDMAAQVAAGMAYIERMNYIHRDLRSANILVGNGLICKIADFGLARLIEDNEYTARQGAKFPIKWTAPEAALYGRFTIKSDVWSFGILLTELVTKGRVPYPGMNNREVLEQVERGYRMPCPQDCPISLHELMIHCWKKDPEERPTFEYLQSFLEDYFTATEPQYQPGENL
Test: phosphorylation enrichment, bacterial display (enrichment ratio); higher = better substrate or ligand; peptides without Tyr show the background;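 also: 11-residue human phosphosite peptides and single-mutation variants displayed on the E. coli surface, counted by deep sequencing, each peptide's frequency after selection divided by its frequency in the unselected input library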;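 also: frequency after pTyr selection over input frequency; kinase dosed for 20-30% of maximal phosphorylation in three min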
Provide the reported phosphorylation enrichment of each item.
Numbers only.

>  <sequence_entry>
LLVVLCKYRCY [PSEN1_Y154_Y154C]

>  <phosphorylation enrichment>
0.377

$$$$
>  <sequence_entry>
QDIMAYRSREV [BCL6_Y157_G159S]

>  <phosphorylation enrichment>
0.323

$$$$
>  <sequence_entry>
VVSMNYRVGAL [BCHE_Y174]

>  <phosphorylation enrichment>
0.336

$$$$
>  <sequence_entry>
HNLDFYKQTTN [FGFR3_Y648_K650Q_YF]

>  <phosphorylation enrichment>
0.368

$$$$
>  <sequence_entry>
QNTGFYFDLFG [PTPN11_Y62_D61Y_YF]

>  <phosphorylation enrichment>
0.668

$$$$
>  <sequence_entry>
PTTKTYFPHFH [HBA1_Y43_D48H]

>  <phosphorylation enrichment>
0.598

$$$$

input: Enter reported phosphorylation enrichment observed with Fyn (UniProt P06241) for TSFQMYDKGLV [IARS2_Y231_F227S_YF]
output: 0.649

====

System: Fer (mouse)
Assay: phosphorylation enrichment, bacterial display (enrichment ratio); higher = better substrate or ligand; peptides without Tyr show the background
readout_kind: phosphorylation enrichment
Give bare numbers.

These recorded examples may help you get a feel for the data.
>  <sequence_entry>
PVQAAYRKVVA [HBB_Y131_Q132R]

>  <system_under_test>
Fer (mouse)

>  <phosphorylation enrichment>
0.339

$$$$
>  <sequence_entry>
PSQRCYVYYYS [PTEN_Y174_R173C]

>  <system_under_test>
Fer (mouse)

>  <phosphorylation enrichment>
0.807

$$$$
>  <sequence_entry>
VERRVYAEDPY [PCCA_Y401_C398R]

>  <system_under_test>
Fer (mouse)

>  <phosphorylation enrichment>
0.424

$$$$
>  <sequence_entry>
MKTISYETLIA [DOCK10_Y1350]

>  <system_under_test>
Fer (mouse)

>  <phosphorylation enrichment>
0.497

$$$$
>  <sequence_entry>
SILAVYSKDNF [PANK2_Y400_YF]

>  <system_under_test>
Fer (mouse)

>  <phosphorylation enrichment>
0.438

$$$$
>  <sequence_entry>
EQLRAYLEGLC [HLA-C_Y183_T187L]

>  <system_under_test>
Fer (mouse)

>  <phosphorylation enrichment>
0.607

$$$$

Dear reader, for each entry below, please note its phosphorylation enrichment.
1. PVKDGYQMAQP [CSF1R_Y873_L868P]
2. KIIATYRLCSE [DNAH3_Y1586_V1583I]
3. IENKLYGTSDP [RET_Y1062_M1064T]
4. FKDGQYWIRGR [ACSF3_Y466]
5. LFLACYFIGGG [UBD_Y161_C162F]
6. IRSGIYYKPES [L2HGDH_Y102_H98R]
7. VTVLDYDKIGK [SYT1_Y365]
8. QSAGQYSSQGL [TNNI3K_Y788]

output:
1. 0.591
2. 0.477
3. 0.549
4. 0.387
5. 0.533
6. 0.465
7. 0.404
8. 0.622

====

Target: FGFR1 (UniProt P11362)
Sequence (P11362 whole entry, looked up): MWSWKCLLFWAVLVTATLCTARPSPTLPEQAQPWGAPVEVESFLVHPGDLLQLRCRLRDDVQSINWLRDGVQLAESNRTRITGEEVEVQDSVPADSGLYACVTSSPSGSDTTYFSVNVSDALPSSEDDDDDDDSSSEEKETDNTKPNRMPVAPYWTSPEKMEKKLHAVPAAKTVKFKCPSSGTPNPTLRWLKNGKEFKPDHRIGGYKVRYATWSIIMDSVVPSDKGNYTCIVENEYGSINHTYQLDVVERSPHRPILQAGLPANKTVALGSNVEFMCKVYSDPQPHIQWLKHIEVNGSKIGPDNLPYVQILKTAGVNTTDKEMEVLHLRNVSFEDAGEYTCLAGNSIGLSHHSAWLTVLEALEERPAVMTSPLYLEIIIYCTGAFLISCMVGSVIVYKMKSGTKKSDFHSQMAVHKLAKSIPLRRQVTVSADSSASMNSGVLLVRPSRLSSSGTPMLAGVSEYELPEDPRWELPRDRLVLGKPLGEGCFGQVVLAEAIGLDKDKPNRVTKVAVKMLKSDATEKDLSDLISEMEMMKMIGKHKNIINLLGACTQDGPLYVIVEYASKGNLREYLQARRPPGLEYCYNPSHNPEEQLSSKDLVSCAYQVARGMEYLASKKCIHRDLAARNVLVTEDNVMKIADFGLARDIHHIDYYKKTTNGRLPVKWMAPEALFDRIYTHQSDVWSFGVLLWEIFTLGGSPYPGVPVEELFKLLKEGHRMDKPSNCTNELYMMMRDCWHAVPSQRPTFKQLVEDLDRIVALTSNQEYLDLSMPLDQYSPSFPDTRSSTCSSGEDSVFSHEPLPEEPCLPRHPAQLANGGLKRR
Experiment: phosphorylation enrichment, bacterial display (enrichment ratio); higher = better substrate or ligand; peptides without Tyr show the background
Cut-off 0.5 on phosphorylation enrichment, inclusive. At or above means TRUE; below means FALSE.

Solved entries (count: 2):
>  <sequence_entry>
LINSVYGCSRQ [TMPRSS6_Y290_T287N]

>  <label_class>
TRUE

$$$$
>  <sequence_entry>
SVVVHYEPPEV [TP53_Y220_P219H]

>  <label_class>
TRUE

$$$$

input: Would you say FRIGPYQPNVP [MATR3_Y784_YF] shows phosphorylation enrichment at minimum 0.5?
output: TRUE

input: Similarly, APTSGYQEFVH [IL4R_Y575] ?
output: TRUE

input: Similarly, KKHIPYRQHKS [CSNK1G2_Y206_E208Q] ?
output: TRUE

input: Similarly, DSNPIYSQIWS [FCRL3_Y662] ?
output: TRUE

input: Similarly, VPLATYMQIFK [RPL21_Y30_R32Q_YF] ?
output: FALSE

input: Similarly, REGDKYVSHGA [ASS1_Y113_A111D] ?
output: TRUE
